- EXPERIMENT_DESCRIPTION: Liver S9 binding by equilibrium dialysis
- CONDITION_INFO: human, human liver S9, %Recovery, human liver S9 binding, individual replicates
QUANTITY_NAME: recovery at 6 h (%)

[
  {
    "MOLECULE": "COc1cccc2[nH]c(C(=O)N[C@@H](CC(C)C)C(=O)N[C@@H](C[C@@H]3CCNC3=O)C(=O)COP(=O)(O)O)cc12 [PF-07304814]",
    "UNITS_OF_MEASURE": "%",
    "ENDPOINT_RESULT": 95
  }
]

---

- TARGET_UNDER_TEST: CYP2C8 (Homo sapiens, UniProt P10632)
- Sequence (P10632 whole entry): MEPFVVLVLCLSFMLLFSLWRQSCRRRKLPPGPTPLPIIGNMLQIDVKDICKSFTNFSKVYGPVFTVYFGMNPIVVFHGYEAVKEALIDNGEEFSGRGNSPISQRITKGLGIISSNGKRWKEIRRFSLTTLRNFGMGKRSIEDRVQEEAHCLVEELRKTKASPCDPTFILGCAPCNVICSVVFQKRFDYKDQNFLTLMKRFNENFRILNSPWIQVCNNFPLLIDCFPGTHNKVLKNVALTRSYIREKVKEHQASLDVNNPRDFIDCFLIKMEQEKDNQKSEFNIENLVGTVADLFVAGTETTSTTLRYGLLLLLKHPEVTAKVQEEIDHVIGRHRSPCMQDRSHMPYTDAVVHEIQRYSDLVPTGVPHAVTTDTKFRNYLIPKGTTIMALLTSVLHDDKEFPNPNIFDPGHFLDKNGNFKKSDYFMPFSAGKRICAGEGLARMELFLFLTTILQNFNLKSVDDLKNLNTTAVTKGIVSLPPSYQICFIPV
- EXPERIMENT_DESCRIPTION: Reversible CYP inhibition in human liver microsomes
- CONDITION_INFO: human, microsomes, pH 7.4, Percent of Control Activity, CYP 2C8, 39.8 µM, Zero-Minute Preincubation
QUANTITY_NAME: activity at 39.8 µM (%)

[
  {
    "TEST_SMILES": "COc1cccc2[nH]c(C(=O)N[C@@H](CC(C)C)C(=O)N[C@@H](C[C@@H]3CCNC3=O)C(=O)COP(=O)(O)O)cc12",
    "QUANTITY_NAME": "activity at 39.8 µM",
    "UNITS_OF_MEASURE": "%",
    "ENDPOINT_RESULT": 87
  }
]

---

- TARGET_UNDER_TEST: CYP2B6 (Homo sapiens)
- Sequence (P20813 1-491): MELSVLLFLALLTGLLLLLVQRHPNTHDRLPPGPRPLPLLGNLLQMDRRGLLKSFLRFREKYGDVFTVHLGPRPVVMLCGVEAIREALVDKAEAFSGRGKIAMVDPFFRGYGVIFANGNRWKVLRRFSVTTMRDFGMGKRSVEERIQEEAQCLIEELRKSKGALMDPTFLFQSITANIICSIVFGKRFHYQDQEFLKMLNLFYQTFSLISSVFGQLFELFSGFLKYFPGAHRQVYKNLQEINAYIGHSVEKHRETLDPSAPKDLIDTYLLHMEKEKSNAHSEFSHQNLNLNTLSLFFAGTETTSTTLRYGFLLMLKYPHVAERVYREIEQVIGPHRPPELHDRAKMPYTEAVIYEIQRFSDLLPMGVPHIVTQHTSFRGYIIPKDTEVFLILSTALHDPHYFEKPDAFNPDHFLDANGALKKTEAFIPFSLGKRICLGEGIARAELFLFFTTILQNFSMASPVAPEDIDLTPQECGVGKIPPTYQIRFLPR
- EXPERIMENT_DESCRIPTION: Reversible CYP inhibition in human liver microsomes
- Assay type: in vitro ADME
- CONDITION_INFO: human, human liver microsomes, pH 7.4, CYP 2B6, 0.979 µM, Zero-Minute Preincubation; read-out: Percent of Control Activity

[
  {
    "COMPOUND": "COc1cccc2[nH]c(C(=O)N[C@@H](CC(C)C)C(=O)N[C@@H](C[C@@H]3CCNC3=O)C(=O)CO)cc12 [PF-00835231]",
    "activity at 0.979 µM (%)": 105
  }
]

---

- EXPERIMENT_DESCRIPTION: Metabolic stability and enzyme kinetics in liver S9 (conversion to PF-00835231)
- CONDITION_INFO: dog, liver S9, pH 7.5, CLintu (unbound CLint)

[
  {
    "COMPOUND": "COc1cccc2[nH]c(C(=O)N[C@@H](CC(C)C)C(=O)N[C@@H](C[C@@H]3CCNC3=O)C(=O)COP(=O)(O)O)cc12 [PF-07304814]",
    "UNITS_OF_MEASURE": "µL/min/mg",
    "microsomal CLint": 84
  }
]
